The reported numbers originate from patent US20070082883A1.

- assay_system: HIV-1 protease (Human immunodeficiency virus type 1 group M subtype B, UniProt P04585)
experimental_readout: Ki (nM)
# value in nM; strip the unit string

Some entries whose results are on file:
[
  {
    "compound": "C=CCCCCN(C[C@@H](O)[C@H](Cc1ccccc1)NC(=O)O[C@@H]1CC2CCO[C@@H]2C1)S(=O)(=O)c1cccc(OCC=C)c1 (some centres unmarked) [Compound 225f]",
    "experimental_readout": "Ki",
    "recorded_number": 3.4
  },
  {
    "compound": "COc1ccc(S(=O)(=O)N(C[C@@H](O)[C@H](Cc2ccccc2)NC(=O)O[C@@H]2CO[C@@H]3OCC[C@@H]32)C2CN(C)C2)cc1",
    "experimental_readout": "Ki",
    "recorded_number": 9.7
  },
  {
    "compound": "CC(C)CN(C[C@@H](O)[C@H](Cc1ccccc1)NC(=O)OC1CC2CCO[C@@H]2C1)S(=O)(=O)c1cncc(N)c1 (some centres unmarked)",
    "experimental_readout": "Ki",
    "recorded_number": 0.8
  },
  {
    "compound": "CC(C)CN(C[C@@H](O)[C@H](Cc1ccccc1)NC(=O)OC1CC2CCO[C@@H]2C1)S(=O)(=O)c1ccc(Cl)c(O)c1 (some centres unmarked)",
    "experimental_readout": "Ki",
    "recorded_number": 1.8
  }
]

Now for the compound whose Ki we want.
Please report the recorded Ki for COc1ccc(S(=O)(=O)N(CC(C)C)C[C@H](O)[C@H](Cc2ccc(OCc3ccccc3)cc2)NC(=O)O[C@H]2CO[C@H]3OCCC32)cc1 (some centres unmarked) .
28

* * *

- assay_system: HIV-1 protease (Human immunodeficiency virus type 1 group M subtype B, UniProt P04585)
- Construct: made in house; host or cells: E. coli BL21 (dE3)pLysS, pET30a vector
- protocol: HIV-1 Protease Inhibition Assay
- Format: biochemical
- applied_conditions: fluorogenic substrate assay
Hi! Just check whether IC50 is below 100 nM. Below gives MET, equal or above gives NOT MET.

[
  {
    "compound": "COc1ccc(S(=O)(=O)N(CC(C)C)C[C@@H](O)[C@H](Cc2ccc(OCc3ccccc3)cc2)NC(=O)OC(C)(C)C)cc1",
    "assay_system": "HIV-1 protease (Human immunodeficiency virus type 1 group M subtype B, UniProt P04585)",
    "classification": "MET"
  },
  {
    "compound": "CC(C)CN(C[C@@H](O)[C@H](Cc1ccccc1)NC(=O)O[C@H]1C[C@H]2CCO[C@H]2C1)S(=O)(=O)c1cncc([N+](=O)[O-])c1",
    "assay_system": "HIV-1 protease (Human immunodeficiency virus type 1 group M subtype B, UniProt P04585)",
    "classification": "MET"
  },
  {
    "compound": "CC(C)CN(C[C@@H](O)[C@H](Cc1ccccc1)NC(=O)OC1CC2CCO[C@@H]2C1)S(=O)(=O)c1cc(O)cc(O)c1 (stereo partly shown)",
    "assay_system": "HIV-1 protease (Human immunodeficiency virus type 1 group M subtype B, UniProt P04585)",
    "classification": "NOT MET"
  },
  {
    "compound": "O=C(N[C@@H](Cc1ccccc1)[C@H](O)CN(CCN1CCOCC1)S(=O)(=O)c1ccc(Cl)c(O)c1)OC1CC2CCO[C@@H]2C1 (stereo partly shown)",
    "assay_system": "HIV-1 protease (Human immunodeficiency virus type 1 group M subtype B, UniProt P04585)",
    "classification": "MET"
  },
  {
    "compound": "O=C(N[C@@H](Cc1ccccc1)[C@H](O)CN1CCCCCCCOc2cccc(c2)S1(=O)=O)O[C@@H]1CC2CCO[C@@H]2C1 (stereo partly shown) [Compound 225h]",
    "assay_system": "HIV-1 protease (Human immunodeficiency virus type 1 group M subtype B, UniProt P04585)",
    "classification": "MET"
  }
]

Given CC(C)CN(C[C@@H](O)[C@H](Cc1ccccc1)NC(=O)OC1CO[C@H]2OCCC12)S(=O)(=O)c1ccc(/C=C/CO)cc1 (stereo partly shown) , is recorded IC50 strictly lower than 100 nM?
MET

Confirm or reject: IC50 of CC(C)CN(C[C@@H](O)[C@H](Cc1ccccc1)NC(=O)O[C@H]1C[C@H]2CCO[C@H]2C1)S(=O)(=O)c1cncc(N)c1 lies strictly below 100 nM
MET

Regarding CC(C)CN(C[C@@H](O)[C@H](Cc1ccccc1)NC(=O)O[C@H]1CCOC1)S(=O)(=O)c1cncc(N)c1 , kindly confirm whether its IC50 is beneath 100 nM.
MET

Criterion: IC50 strictly below 100 nM. Is it met by Cc1ccc(S(=O)(=O)N(CCN(C)C)C[C@@H](O)[C@H](Cc2ccccc2)NC(=O)O[C@H]2C[C@H]3CCO[C@H]3C2)cc1CO ?
NOT MET

* * *

- assay_system: HIV-1 protease (Human immunodeficiency virus type 1 group M subtype B, UniProt P04585)
- Construct: made in house; host or cells: E. coli BL21 (dE3)pLysS, pET30a vector
- protocol: HIV-1 Protease Inhibition Assay
- Assay type: biochemical
- applied_conditions: fluorogenic substrate assay
Listed below: log10(IC50) values for each entry.
Values reflect log10 of reported IC50 (nM).

Worked examples follow.
[
  {
    "compound": "CC(C)CN(C[C@@H](O)[C@H](Cc1ccccc1)NC(=O)OC1CC2CCO[C@@H]2C1)S(=O)(=O)Cc1ccccc1 (stereo partly shown)",
    "assay_system": "HIV-1 protease (Human immunodeficiency virus type 1 group M subtype B, UniProt P04585)",
    "log10(IC50)": 1.68
  },
  {
    "compound": "Cc1ccc(S(=O)(=O)OCc2ccc(S(=O)(=O)N(CC(C)C)C[C@@H](O)[C@H](Cc3ccccc3)NC(=O)OC3CO[C@H]4OCCC34)cc2)cc1 (stereo partly shown)",
    "assay_system": "HIV-1 protease (Human immunodeficiency virus type 1 group M subtype B, UniProt P04585)",
    "log10(IC50)": 0.38
  },
  {
    "compound": "O=C(N[C@@H](Cc1ccccc1)[C@H](O)CN1CCCCCCCOc2cccc(c2)S1(=O)=O)O[C@H]1CO[C@H]2OCCC21 (stereo partly shown)",
    "assay_system": "HIV-1 protease (Human immunodeficiency virus type 1 group M subtype B, UniProt P04585)",
    "log10(IC50)": 0.93
  },
  {
    "compound": "CC(C)CN(C[C@@H](O)[C@H](Cc1ccccc1)NC(=O)O[C@H]1CCOC1)S(=O)(=O)c1ccc(F)c([N+](=O)[O-])c1",
    "assay_system": "HIV-1 protease (Human immunodeficiency virus type 1 group M subtype B, UniProt P04585)",
    "log10(IC50)": 2.16
  }
]

API: value(readout=log10(IC50), system=HIV-1 protease (Human immunodeficiency virus type 1 group M subtype B, UniProt P04585)) for record O=C(N[C@@H](Cc1ccccc1)[C@H](O)CN1CCCC/C=C\COc2cccc(c2)S1(=O)=O)O[C@@H]1CC2CCO[C@@H]2C1 (stereo partly shown) [Compound 225g]
1.00

Given the entry O=C(N[C@@H](Cc1ccccc1)[C@H](O)CN1CCCC/C=C\CCOc2cccc(c2)S1(=O)=O)O[C@H]1CO[C@H]2OCCC21 (stereo partly shown) , what log10(IC50) was observed with HIV-1 protease (Human immunodeficiency virus type 1 group M subtype B, UniProt P04585)?
0.94

Give recorded log10(IC50) with HIV-1 protease (Human immunodeficiency virus type 1 group M subtype B, UniProt P04585) for the following compound: Cc1ccc(S(=O)(=O)N(CC(C)C)C[C@@H](O)[C@H](Cc2ccccc2)NC(=O)OC2CC3CCO[C@@H]3C2)cc1CO (stereo partly shown)
0.45

Value wanted: log10(IC50) (HIV-1 protease (Human immunodeficiency virus type 1 group M subtype B, UniProt P04585)) of entry CC(C)CN(C[C@@H](O)[C@H](Cc1ccccc1)NC(=O)OC1CC2CCO[C@@H]2C1)S(=O)(=O)c1cccc2cccnc12 (stereo partly shown)
1.08

Missing value: log10(IC50), HIV-1 protease (Human immunodeficiency virus type 1 group M subtype B, UniProt P04585), entry CC(C)CN(C[C@@H](O)[C@H](Cc1ccccc1)NC(=O)OC1CC2CCO[C@@H]2C1)S(=O)(=O)c1cncc(N)c1 (stereo partly shown) . Fill in?
0.40

Given the entry CC(C)CN(C[C@@H](O)[C@H](Cc1ccccc1)NC(=O)OC1CC2CCO[C@@H]2C1)S(=O)(=O)c1ccc(OC2CCCCO2)c(OC2CCCCO2)c1 (stereo partly shown) , what log10(IC50) was observed with HIV-1 protease (Human immunodeficiency virus type 1 group M subtype B, UniProt P04585)?
1.48

Recall the recorded log10(IC50) for CC(C)CN(C[C@@H](O)[C@H](Cc1ccccc1)NC(=O)OC1CC2CCO[C@@H]2C1)S(=O)(=O)c1ccc(Cl)c(O)c1 (stereo partly shown) with HIV-1 protease (Human immunodeficiency virus type 1 group M subtype B, UniProt P04585) and state it.
0.72

Can you look up log10(IC50) on HIV-1 protease (Human immunodeficiency virus type 1 group M subtype B, UniProt P04585) for CC(C)CN(C[C@@H](O)[C@H](Cc1ccccc1)NC(=O)OC1CO[C@H]2OCCC12)S(=O)(=O)c1cncc(N)c1 (stereo partly shown) ?
-0.04
